test system: HT 22 mouse neuronal cell line; test: Inhibition test of beta amyloid toxicity (MTT); format: cell-based; conditions: HT22 cells, 25 μM aggregated beta amyloid, 18 hours
metricName: inhibitory effect on the toxicity of beta amyloid

molecule	endpointValue
CC(C)C1=Cc2ccc3c(c2C(=O)C1=O)CCCC3(C)C	did not inhibit
CC(C)C1=Cc2ccc3c(c2C(=O)C1=O)C=CCC3(C)C [1,2-Didehydromiltirone, 1,2-didehydromiltirone]	did not inhibit
